# ASSAYED_TARGET: LRT (GST-tagged N-terminal LRT domain of BteA) (Bordetella pertussis, UniProt Q7VSD3)
# Construct: gene BP0500; N-terminal lipid raft targeting (membrane localization) domain, aa 1-130 of 656; N-terminal GST tag (pGEX-6P1) kept; E. coli Rosetta 2
# Sequence (Q7VSD3 entry or part of it): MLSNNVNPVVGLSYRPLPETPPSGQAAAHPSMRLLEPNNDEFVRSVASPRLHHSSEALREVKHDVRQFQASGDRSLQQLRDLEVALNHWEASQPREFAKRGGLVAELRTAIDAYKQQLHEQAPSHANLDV
# METHOD_SUMMARY: SPR steady state, immobilized liposomes
# Type: binding
# CONDITION_LABEL: read-out: KD (apparent); PS/PC 20:80 (mol) liposomes, 100 nm; 50 mM Tris-HCl pH 7.4, 150 mM NaCl, 0.005% Tween-20; 25 °C; Kd in terms of protein concentration; unit nM shared in the sentence, abstract gives ∼1.2 μM
RECORDED_ENDPOINT: Kd (nM)

1) CCCCCCCC/C=C\CCCCCCCC(=O)O[C@H](COC(=O)CCCCCCCCCCCCCCC)COP(=O)(O)OC[C@H](N)C(=O)O 1230
